test: qHTS assay to identify small molecule antagonists of the sonic hedgehog signaling (Shh) pathway (AID 1259369); details: NIH/3T3 Gli1-Luc reporter, Shh antagonist, luminescence 24 h; series mostly up to 92.4 µM; also: nearly all actives have a fitted effect of over 45% in size
Inconclusive results are not listed. Calls of active or inactive are those of the source. Calls follow the shape of the full dose curve.
Reply using exactly one outcome from YES (active), NO (inactive)

Qu. Tell me the assay call for `N#Cc1c(-c2ccc(Cl)cc2)[nH]c(C(F)(F)F)c1Br` please.
Ans. YES

Qu. Tell me the assay call for `c1cc[c]([Sb]([c]2ccccc2)[c]2ccccc2)cc1` please.
Ans. YES

Qu. Tell me the assay call for `CN(C)C(=S)[S-].CN(C)C(=S)[S-].[Cu+2]` please.
Ans. YES

Qu. Tell me the assay call for `C[C@]12CC[C@@H]3c4ccc(OC(=O)N(CCCl)CCCl)cc4CC[C@H]3[C@@H]1CC[C@@H]2O` please.
Ans. NO

Qu. Tell me the assay call for `CC[C@H]1C[C@@H]2C[C@H]3c4[nH]c5ccc(OC)cc5c4CCN(C2)[C@@H]13` please.
Ans. YES

Next, consider the following molecule.
Qu. Tell me the assay call for CCOC(=O)OC1=C(c2cc(C)ccc2C)C(=O)NC12CCC(OC)CC2 (centres undefined) please.
Ans. YES

---

Test: qHTS assay to identify small molecule antagonists of the farnesoid-X-receptor (FXR) signaling pathway - cell viability counter screen (AID 743221); also: nearly all actives have a fitted effect of over 50% in size
Conditions: FXR-bla HEK293T viability, CellTiter-Glo luminescence, 16 h; series mostly up to 62.6 µM
Text: National Center for Advancing Translational Sciences [NCATS] NIH Chemical Genomics Center [NCGC] U.S. Environmental Protection Agency [EPA] National Institutes of Environmental Health Sciences [NIEHS] National Toxicology Program [NTP] U.S. Food and Drug Administration [FDA] The farnesoid-X-receptor (FXR), a nuclear hormone receptor, is highly expressed in liver, intestine, kidney and adrenal cortex. Natural ligands of FXR are the bile acids (Cholic acid, Chenodeoxy cholic acid etc). […]
Records with an inconclusive call do not appear. Calls of active or inactive are those of the source. Calls follow the shape of the dose curve; as a rule, active = well fitted cell-killing curve with a large enough effect in the repeat runs (not every such curve was filed as active); inconclusive = weak or mixed curves, or effect the other way; inactive = no such curve, though single readings can be large or run the other way.
Reply using exactly one outcome from active, inactive

Some entries whose results are on file:
Qu. Tell me the assay call for `CN(C)C(=S)[S-].CN(C)C(=S)[S-].[Cu+2]` please.
Ans. active

Qu. Tell me the assay call for `Clc1ccc(C(c2ccc(Cl)cc2)C(Cl)(Cl)Cl)cc1` please.
Ans. inactive

Qu. Tell me the assay call for `Oc1ccc(C(=C(Cl)Cl)c2ccc(O)cc2)cc1` please.
Ans. inactive

Qu. Tell me the assay call for `O=C(CBr)c1ccc(O)cc1` please.
Ans. inactive

Qu. Tell me the assay call for `ClC(Cl)=C(Cl)Cl` please.
Ans. inactive

More entries:
Qu. Tell me the assay call for `ClC(Cl)=C(c1ccc(Cl)cc1)c1ccc(Cl)cc1` please.
Ans. inactive

Qu. Tell me the assay call for `CCOC(=O)C1(c2ccccc2)CCN(CCC(C#N)(c2ccccc2)c2ccccc2)CC1` please.
Ans. inactive

Qu. Tell me the assay call for `O=CC(Br)(Br)Br` please.
Ans. active

---

test: qHTS assay to identify small molecule antagonists of the retinoid-related orphan receptor gamma (ROR-gamma) signaling pathway - cell viability counter screen (AID 1159520); details: Tet-on RORgamma CHO cells viability, ATP luminescence, 16 h; series mostly up to 92.4 µM; also: nearly all actives have a fitted effect of over 50% in size
Inconclusive results are not listed. Activity calls are given as the source filed them. The call rests on the fitted dose curve; in most records, active means well fitted cell-killing curve with a large enough effect in the repeat runs; inconclusive means weak or mixed curves, or effect the other way; inactive means no such curve, though single readings can be large or run the other way.
Reply using exactly one outcome from active, inactive

Some entries whose results are on file:
Qu. Tell me the assay call for O=C(O)C1C2CCC(O2)C1C(=O)O (stereo not given) please.
Ans. active

Qu. Tell me the assay call for `Clc1ccc(Oc2ccccc2)cc1` please.
Ans. inactive

Qu. Tell me the assay call for `[Hg+2].[I-].[I-]` please.
Ans. active

Qu. Tell me the assay call for `CCOP(=S)(OCC)SCS(=O)(=O)C(C)(C)C` please.
Ans. inactive

Qu. Tell me the assay call for `CC(=O)[O-].[Tl+]` please.
Ans. inactive

Qu. Tell me the assay call for `CC(=O)Nc1ccc2c(c1)Cc1ccccc1-2` please.
Ans. inactive

More entries:
Qu. Tell me the assay call for OC(Cc1ccccc1Cl)(Cn1cncn1)C1(Cl)CC1 (stereo not given) please.
Ans. inactive

Qu. Tell me the assay call for `Oc1c(Br)c(Br)c(Br)c(Br)c1Br` please.
Ans. inactive

Qu. Tell me the assay call for `N#CCc1ccc(Cl)cc1` please.
Ans. inactive

Qu. Tell me the assay call for `COP(=O)(CCC(=O)NCO)OC` please.
Ans. inactive

Qu. Tell me the assay call for CC(C)CC(C)Nc1ccc(Nc2ccccc2)cc1 (stereo not given) please.
Ans. active

---

Assay: A CellTox Green Cytotoxicity Assay to monitor cytotoxicity in HepG2 cells - 0 hour (AID 1224882); also: nearly all actives have a fitted effect of over 35% in size
Details: CellTox Green fluorescence; series mostly up to 76.8 µM
Excerpt: National Center for Advancing Translational Sciences [NCATS] NIH Chemical Genomics Center [NCGC] U.S. Environmental Protection Agency [EPA] National Institutes of Environmental Health Sciences [NIEHS] National Toxicology Program [NTP] Cell-based models are critical for drug discovery. […] Viable cells produce no appreciable increases in fluorescence. Therefore, the fluorescence signal produced by the binding interaction with dead cell DNA is proportional to cytotoxicity. […]
Calls of active or inactive are those of the source. Calls come from the whole dose curve; as a rule, active = well fitted activation curve with a large enough effect in the repeat runs; inconclusive = weak or mixed curves; inactive = flat fitted curve, though single readings scatter.
Reply using exactly one outcome from active, inactive

Some entries whose results are on file:
Qu. Tell me the assay call for `CCOC(=O)c1ccccc1S(=O)(=O)NC(=O)Nc1nc(Cl)cc(OC)n1` please.
Ans. inactive

Qu. Tell me the assay call for `BrC(Br)C(Br)(Br)Br` please.
Ans. inactive

Qu. Tell me the assay call for `c1ccc(Nc2ccc3ccccc3c2)cc1` please.
Ans. inactive

Qu. Tell me the assay call for `C[C@@H]1CC[C@@]2(OC1)O[C@H]1[C@@H](O)[C@H]3[C@@H]4CC[C@H]5C[C@@H](O[C@@H]6O[C@H](CO)[C@H](O[C@@H]7O[C@H](CO)[C@@H](O)[C@H](O[C@@H]8OC[C@@H](O)[C@H](O)[C@H]8O)[C@H]7O[C@@H]7O[C@H](CO)[C@@H](O)[C@H](O[C@@H]8O[C@H](CO)[C@@H](O)[C@H](O)[C@H]8O)[C@H]7O)[C@H](O)[C@H]6O)[C@H](O)C[C@]5(C)[C@H]4CC[C@]3(C)[C@H]1[C@@H]2C` please.
Ans. inactive

Qu. Tell me the assay call for `CCN(CC)c1c([N+](=O)[O-])cc(C(F)(F)F)c(N)c1[N+](=O)[O-]` please.
Ans. inactive

Next, consider the following compound.
Qu. Tell me the assay call for `CS(=O)(=O)c1ccc(C(=O)C2C(=O)CCCC2=O)c([N+](=O)[O-])c1` please.
Ans. active

---

molecular target: Voltage-gated inwardly rectifying potassium channel KCNH2 (Homo sapiens) (UniProt Q12809); assay: Human Ether-a-go-go-Related Gene (hERG) channel small molecule antagonists: fluorescence cell-based qHTS assay (AID 1671200); conditions: hERG-U2OS cells, FluxOR thallium flux fluorescence; series mostly up to 76.8 µM; also: nearly all actives have a fitted effect of over 50% in size
Sequence (Q12809 whole entry, looked up): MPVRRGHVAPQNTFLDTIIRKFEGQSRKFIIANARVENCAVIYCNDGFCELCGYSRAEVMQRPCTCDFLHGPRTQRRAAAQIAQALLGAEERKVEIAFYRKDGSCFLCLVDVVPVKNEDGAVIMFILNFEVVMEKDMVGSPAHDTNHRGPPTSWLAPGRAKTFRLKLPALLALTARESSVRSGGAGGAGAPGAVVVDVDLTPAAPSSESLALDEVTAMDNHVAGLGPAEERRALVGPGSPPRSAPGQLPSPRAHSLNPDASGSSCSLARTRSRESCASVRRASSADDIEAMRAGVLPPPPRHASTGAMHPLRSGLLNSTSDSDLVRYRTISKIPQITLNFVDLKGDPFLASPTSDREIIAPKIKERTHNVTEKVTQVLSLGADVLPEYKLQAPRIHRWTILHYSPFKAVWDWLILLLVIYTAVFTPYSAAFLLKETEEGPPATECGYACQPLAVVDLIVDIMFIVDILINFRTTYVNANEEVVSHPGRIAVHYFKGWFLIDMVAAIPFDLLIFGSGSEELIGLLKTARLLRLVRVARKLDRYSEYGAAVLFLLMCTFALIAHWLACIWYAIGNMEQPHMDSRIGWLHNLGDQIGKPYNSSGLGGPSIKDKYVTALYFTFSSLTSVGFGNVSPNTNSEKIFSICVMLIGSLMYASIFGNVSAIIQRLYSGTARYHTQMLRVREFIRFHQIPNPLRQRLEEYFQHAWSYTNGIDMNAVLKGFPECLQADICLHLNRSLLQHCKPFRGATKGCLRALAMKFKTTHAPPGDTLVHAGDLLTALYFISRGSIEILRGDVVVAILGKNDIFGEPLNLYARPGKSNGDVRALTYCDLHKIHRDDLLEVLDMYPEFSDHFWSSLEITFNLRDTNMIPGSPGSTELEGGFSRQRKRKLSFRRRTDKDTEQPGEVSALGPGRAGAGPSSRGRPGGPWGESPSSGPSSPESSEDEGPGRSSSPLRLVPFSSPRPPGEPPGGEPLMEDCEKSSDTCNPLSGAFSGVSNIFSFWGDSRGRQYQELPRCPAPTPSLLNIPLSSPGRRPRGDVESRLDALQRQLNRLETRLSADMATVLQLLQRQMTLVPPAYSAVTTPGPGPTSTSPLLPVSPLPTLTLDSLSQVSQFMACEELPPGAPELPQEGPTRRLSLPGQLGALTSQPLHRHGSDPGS
Records with an inconclusive call do not appear. Activity calls are given as the source filed them. Calls come from the whole dose curve; as a rule, active = well fitted inhibition curve with a large enough effect in the repeat runs; inconclusive = weak or mixed curves; inactive = flat fitted curve, though single readings scatter.
Reply using exactly one outcome from active, inactive

Qu. Tell me the assay call for `CC(C)(c1ccc(O)c(-c2ccccc2)c1)c1ccc(O)c(-c2ccccc2)c1` please.
Ans. inactive

Qu. Tell me the assay call for `COC[C@H](C)N(C(=O)CCl)c1c(C)csc1C` please.
Ans. inactive

Qu. Tell me the assay call for `CC(=O)[O-].[Tl+]` please.
Ans. inactive

Qu. Tell me the assay call for `CCCCCCCCCCCCCCCCCCn1cc[n+](C)c1` please.
Ans. active

Qu. Tell me the assay call for `Cc1cc(C(C)(C)c2cc(C)c(O)c(C)c2)cc(C)c1O` please.
Ans. inactive

Qu. Tell me the assay call for N#CCCC(Br)(C#N)CBr (centres undefined) please.
Ans. active

Qu. Tell me the assay call for `COc1ccc(/C(=C/C(=O)N2CCOCC2)c2ccc(Cl)cc2)cc1OC` please.
Ans. active

Qu. Tell me the assay call for `C[C@@H]1CC[C@@]2(OC1)O[C@H]1[C@@H](O)[C@H]3[C@@H]4CC[C@H]5C[C@@H](O[C@@H]6O[C@H](CO)[C@H](O[C@@H]7O[C@H](CO)[C@@H](O)[C@H](O[C@@H]8OC[C@@H](O)[C@H](O)[C@H]8O)[C@H]7O[C@@H]7O[C@H](CO)[C@@H](O)[C@H](O[C@@H]8O[C@H](CO)[C@@H](O)[C@H](O)[C@H]8O)[C@H]7O)[C@H](O)[C@H]6O)[C@H](O)C[C@]5(C)[C@H]4CC[C@]3(C)[C@H]1[C@@H]2C` please.
Ans. active

More entries:
Qu. Tell me the assay call for COc1cccc2c1C(=O)c1c(O)c3c(c(O)c1C2=O)C[C@@](O)(C(=O)CO)CC3OC1CC(N2CCOC(OC)C2)C(O)C(C)O1 (some centres undefined) please.
Ans. inactive

Qu. Tell me the assay call for CC(C)C1CCC(Cc2ccc(Cl)cc2)C1(O)Cn1cncn1 (centres undefined) please.
Ans. active

Qu. Tell me the assay call for `COP(=O)(OC)SCn1c(=O)oc2cc(Cl)cnc21` please.
Ans. inactive

Qu. Tell me the assay call for `CCOCCOC(C)=O` please.
Ans. inactive

Qu. Tell me the assay call for `CC(=O)C(Cl)(Cl)Cl` please.
Ans. inactive

Qu. Tell me the assay call for `C=COCCCl` please.
Ans. inactive

Qu. Tell me the assay call for `CCCCCCCCCCCCBr` please.
Ans. inactive

Qu. Tell me the assay call for CCC(C)c1cc(C(C)(C)C)cc(-n2nc3ccccc3n2)c1O (centres undefined) please.
Ans. inactive

Qu. Tell me the assay call for `O=c1oc2ccccc2c(O)c1Cc1c(O)c2ccccc2oc1=O` please.
Ans. inactive

Qu. Tell me the assay call for CC(Cl)CN(C)C (centres undefined) please.
Ans. inactive

Qu. Tell me the assay call for `O=[N+]([O-])c1cc(C(F)(F)F)c(Cl)c([N+](=O)[O-])c1Cl` please.
Ans. active

Qu. Tell me the assay call for `Cc1cccc(OP(=O)(Oc2cccc(C)c2)Oc2cccc(C)c2)c1` please.
Ans. inactive

Qu. Tell me the assay call for `CN(CCCC(=O)c1cccnc1)N=O` please.
Ans. inactive

Qu. Tell me the assay call for `N#Cc1ccccc1N` please.
Ans. inactive

Qu. Tell me the assay call for `O=C/C(Cl)=C(/Cl)C(=O)O` please.
Ans. inactive

Qu. Tell me the assay call for `CC(=[OH+])/C=C(/C)[O-].CC(=[OH+])/C=C(\C)[O-].CC(=[OH+])/C=C(\C)[O-].[Al]` please.
Ans. inactive
